- System: Escherichia coli TOP10;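 further: peptides expressed intracellularly from a pBAD plasmid library in pooled LB shake-flask culture, induced with 0.3% L-arabinose, DNA abundance read by NGS, three biological replicates, DESeq2 with apeglm shrinkage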
- procedure-summary: shrunken log2 fold change of peptide-encoding DNA abundance (4.5 h post-induction vs induction); higher = less antimicrobial activity (less host growth inhibition)
- particulars: time post-induction: 4.5 h; library: site-saturation at positions 5, 18, 19, 20
reported-endpoint: shrunken log2 fold change

# construct-sequence, target-or-test-system, assay-result
measured = [
    ("RRIRGRPPRLPRPRPRPIKAPRP", "Escherichia coli TOP10", 0.024),
    ("RRIRKRPPRLPRPRPRPCKWPRP", "Escherichia coli TOP10", 0.0523),
    ("RRIRKRPPRLPRPRPRPFWFPRP", "Escherichia coli TOP10", 0.247),
    ("RRIRKRPPRLPRPRPRPMCAPRP", "Escherichia coli TOP10", 0.583),
    ("RRIRIRPPRLPRPRPRPNINPRP", "Escherichia coli TOP10", -0.918),
    ("RRIRFRPPRLPRPRPRPWNRPRP", "Escherichia coli TOP10", -0.216),
    ("RRIRKRPPRLPRPRPRPAMMPRP", "Escherichia coli TOP10", 1.24),
    ("RRIRERPPRLPRPRPRPWIRPRP", "Escherichia coli TOP10", -0.667),
    ("RRIRTRPPRLPRPRPRPKMWPRP", "Escherichia coli TOP10", 0.307),
    ("RRIRERPPRLPRPRPRPPMWPRP", "Escherichia coli TOP10", 0.245),
    ("RRIRARPPRLPRPRPRPHTQPRP", "Escherichia coli TOP10", -0.0761),
    ("RRIRARPPRLPRPRPRPEHPPRP", "Escherichia coli TOP10", 0.652),
    ("RRIRVRPPRLPRPRPRPVKRPRP", "Escherichia coli TOP10", 0.0275),
    ("RRIRSRPPRLPRPRPRPMARPRP", "Escherichia coli TOP10", 0.101),
    ("RRIRNRPPRLPRPRPRPNMMPRP", "Escherichia coli TOP10", -0.25),
    ("RRIRPRPPRLPRPRPRPIYYPRP", "Escherichia coli TOP10", -0.323),
    ("RRIRCRPPRLPRPRPRPDCNPRP", "Escherichia coli TOP10", -0.219),
    ("RRIRNRPPRLPRPRPRPAWRPRP", "Escherichia coli TOP10", 0.526),
    ("RRIRIRPPRLPRPRPRPGMWPRP", "Escherichia coli TOP10", 0.0422),
    ("RRIRNRPPRLPRPRPRPHEHPRP", "Escherichia coli TOP10", -0.155),
    ("RRIRTRPPRLPRPRPRPSSVPRP", "Escherichia coli TOP10", -0.139),
    ("RRIRNRPPRLPRPRPRPQVCPRP", "Escherichia coli TOP10", 0.0261),
    ("RRIRGRPPRLPRPRPRPYSEPRP", "Escherichia coli TOP10", -0.093),
    ("RRIRHRPPRLPRPRPRPEGEPRP", "Escherichia coli TOP10", 0.0139),
    ("RRIRKRPPRLPRPRPRPLVYPRP", "Escherichia coli TOP10", -0.23),
    ("RRIRSRPPRLPRPRPRPISRPRP", "Escherichia coli TOP10", -0.416),
    ("RRIRLRPPRLPRPRPRPRLIPRP", "Escherichia coli TOP10", 0.123),
    ("RRIRFRPPRLPRPRPRPYLVPRP", "Escherichia coli TOP10", -0.423),
    ("RRIRLRPPRLPRPRPRPGGNPRP", "Escherichia coli TOP10", -0.0421),
    ("RRIRVRPPRLPRPRPRPLRFPRP", "Escherichia coli TOP10", 0.571),
    ("RRIRARPPRLPRPRPRPFDVPRP", "Escherichia coli TOP10", -0.0821),
    ("RRIRPRPPRLPRPRPRPQTFPRP", "Escherichia coli TOP10", -0.495),
    ("RRIRCRPPRLPRPRPRPVSYPRP", "Escherichia coli TOP10", 0.0707),
    ("RRIRNRPPRLPRPRPRPVATPRP", "Escherichia coli TOP10", -0.0503),
    ("RRIRWRPPRLPRPRPRPKAAPRP", "Escherichia coli TOP10", 0.338),
    ("RRIRQRPPRLPRPRPRPCYNPRP", "Escherichia coli TOP10", -0.0459),
    ("RRIRFRPPRLPRPRPRPFDCPRP", "Escherichia coli TOP10", -0.0469),
    ("RRIRERPPRLPRPRPRPHLRPRP", "Escherichia coli TOP10", -0.173),
    ("RRIRHRPPRLPRPRPRPHSRPRP", "Escherichia coli TOP10", 0.0183),
    ("RRIRKRPPRLPRPRPRPIHGPRP", "Escherichia coli TOP10", -0.122),
    ("RRIRTRPPRLPRPRPRPRNHPRP", "Escherichia coli TOP10", -0.345),
    ("RRIRSRPPRLPRPRPRPEDGPRP", "Escherichia coli TOP10", 0.0117),
    ("RRIRERPPRLPRPRPRPSLVPRP", "Escherichia coli TOP10", -0.0847),
    ("RRIRYRPPRLPRPRPRPTIRPRP", "Escherichia coli TOP10", -0.336),
    ("RRIRCRPPRLPRPRPRPQEAPRP", "Escherichia coli TOP10", 0.0141),
    ("RRIRSRPPRLPRPRPRPMIWPRP", "Escherichia coli TOP10", 0.027),
    ("RRIRMRPPRLPRPRPRPLEPPRP", "Escherichia coli TOP10", 0.261),
    ("RRIRTRPPRLPRPRPRPHSFPRP", "Escherichia coli TOP10", -0.0168),
    ("RRIRIRPPRLPRPRPRPHHDPRP", "Escherichia coli TOP10", -0.515),
    ("RRIRRRPPRLPRPRPRPCPPPRP", "Escherichia coli TOP10", 0.0965),
    ("RRIRPRPPRLPRPRPRPKIWPRP", "Escherichia coli TOP10", 0.407),
    ("RRIRDRPPRLPRPRPRPIMWPRP", "Escherichia coli TOP10", -0.00999),
    ("RRIRARPPRLPRPRPRPLTLPRP", "Escherichia coli TOP10", 0.0472),
    ("RRIRWRPPRLPRPRPRPCPGPRP", "Escherichia coli TOP10", -0.218),
    ("RRIRNRPPRLPRPRPRPYKFPRP", "Escherichia coli TOP10", -0.286),
    ("RRIRTRPPRLPRPRPRPGCSPRP", "Escherichia coli TOP10", 0.0133),
    ("RRIRERPPRLPRPRPRPWVVPRP", "Escherichia coli TOP10", -0.151),
    ("RRIRPRPPRLPRPRPRPIAAPRP", "Escherichia coli TOP10", 0.621),
    ("RRIRDRPPRLPRPRPRPNNSPRP", "Escherichia coli TOP10", -0.422),
    ("RRIRLRPPRLPRPRPRPLAFPRP", "Escherichia coli TOP10", -0.092),
    ("RRIRERPPRLPRPRPRPHKFPRP", "Escherichia coli TOP10", -0.984),
    ("RRIRGRPPRLPRPRPRPCPVPRP", "Escherichia coli TOP10", 0.197),
    ("RRIRDRPPRLPRPRPRPRYTPRP", "Escherichia coli TOP10", -0.219),
]
